# target_or_test_system: Histone deacetylase 3 (Homo sapiens, UniProt O15379)
# Sequence (O15379 whole entry): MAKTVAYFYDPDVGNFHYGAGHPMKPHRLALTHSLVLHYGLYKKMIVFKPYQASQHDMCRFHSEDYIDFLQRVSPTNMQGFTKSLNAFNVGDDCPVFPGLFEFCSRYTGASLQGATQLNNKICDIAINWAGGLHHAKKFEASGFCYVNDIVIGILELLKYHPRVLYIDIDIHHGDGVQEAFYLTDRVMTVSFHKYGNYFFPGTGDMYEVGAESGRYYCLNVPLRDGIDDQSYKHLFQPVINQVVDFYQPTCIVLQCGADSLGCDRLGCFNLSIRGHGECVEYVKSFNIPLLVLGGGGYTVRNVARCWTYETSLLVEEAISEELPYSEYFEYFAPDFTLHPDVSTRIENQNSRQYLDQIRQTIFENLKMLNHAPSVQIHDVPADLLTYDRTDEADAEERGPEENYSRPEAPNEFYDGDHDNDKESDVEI
# method_notes: Inhibition of recombinant HDAC3 (unknown origin) using Boc-Lys(acetyl)-AMC as substrate preincubated for 1 hr followed by substrate addition and measured after 2 hrs by fluorescence based microplate reader analysis
test_readout: IC50 (nM)

Below are worked cases with known answers.
smiles_entry	units	IC50
CCNNC(=O)c1ccc(CNC(=O)Nc2cccc3cccnc23)cc1	nM	0.9
CCNNC(=O)c1ccc(CN2c3ccccc3Oc3ccccc32)cc1	nM	3130
CCNNC(=O)c1ccc(CNc2cccc3cccnc23)cc1	nM	147

(I) CCCCN(Cc1ccc(C(=O)NNCC)cc1)C(=O)c1ccccc1
(II) CCNNC(=O)c1ccc(Cn2c(=O)n(CCc3ccccc3)c(=O)c3ccccc32)cc1
(III) CCNNC(=O)c1ccc(Cn2nnnc2-c2cccs2)cc1
(IV) CCNNC(=O)c1ccc(CN2c3ccccc3Sc3ccccc32)cc1
(V) CCCCN(Cc1ccc(C(=O)NNCC)cc1)C(=O)Nc1ccccc1
Parameters: sort_field (IC50), sort_dir (desc). I would appreciate it if you listed the labels in the requested order. IV, I, V, II, III

(1) CCNNC(=O)c1ccc(CN2c3ccccc3C=Cc3ccc(C)cc32)cc1
(2) CCNNC(=O)c1ccc(Cn2c3ccccc3c3ccccc32)cc1
(3) CCNNC(=O)c1ccc(Cn2c3ccccc3c3cnccc32)cc1
(4) CCNNC(=O)c1ccc(CN2c3ccccc3C=Cc3ccccc32)cc1
Ordering: ascending IC50. I would appreciate it if you listed the labels in the requested order. 1, 4, 2, 3
